Field: FMC63 Binding Score. Provide a value for each of the molecules that follow.
Sequence (as listed by the source): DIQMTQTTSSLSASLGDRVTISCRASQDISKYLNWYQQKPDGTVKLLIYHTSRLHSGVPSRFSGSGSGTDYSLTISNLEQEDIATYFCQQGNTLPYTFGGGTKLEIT
Sequence (as listed by the source): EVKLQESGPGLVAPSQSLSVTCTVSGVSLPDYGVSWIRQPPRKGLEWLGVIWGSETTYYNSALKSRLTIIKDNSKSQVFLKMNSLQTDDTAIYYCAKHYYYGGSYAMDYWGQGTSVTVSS
tested on: FMC63; assay: CD19 variant binding to anti-CD19 antibody FMC63 (score); conditions: Table 1A, CD19 single mutants (positions of SEQ ID NO:2)

Below: 2 molecules and their reported FMC63 Binding Score.
| MOLECULE | FMC63 Binding Score |
| --- | --- |
| W264N: CD19 variant (protein) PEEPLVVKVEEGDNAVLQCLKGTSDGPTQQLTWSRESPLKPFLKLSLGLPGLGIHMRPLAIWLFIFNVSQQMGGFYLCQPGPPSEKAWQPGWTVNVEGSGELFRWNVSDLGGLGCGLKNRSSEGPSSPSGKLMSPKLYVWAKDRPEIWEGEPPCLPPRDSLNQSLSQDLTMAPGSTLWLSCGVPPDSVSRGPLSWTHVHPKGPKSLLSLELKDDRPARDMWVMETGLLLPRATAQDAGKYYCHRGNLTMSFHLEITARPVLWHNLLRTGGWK | 9. ± 1.3 |
| I255V: CD19 variant (protein) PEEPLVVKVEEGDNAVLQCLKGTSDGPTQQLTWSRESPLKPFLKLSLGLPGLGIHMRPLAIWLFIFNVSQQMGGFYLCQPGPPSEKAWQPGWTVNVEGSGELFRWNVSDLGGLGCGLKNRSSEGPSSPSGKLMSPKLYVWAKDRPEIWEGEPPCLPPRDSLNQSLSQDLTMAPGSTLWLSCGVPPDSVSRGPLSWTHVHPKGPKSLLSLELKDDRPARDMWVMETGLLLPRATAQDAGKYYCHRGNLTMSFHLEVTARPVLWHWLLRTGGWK | 6.4 ± .4 |

Consider the molecule F64G: CD19 variant (protein) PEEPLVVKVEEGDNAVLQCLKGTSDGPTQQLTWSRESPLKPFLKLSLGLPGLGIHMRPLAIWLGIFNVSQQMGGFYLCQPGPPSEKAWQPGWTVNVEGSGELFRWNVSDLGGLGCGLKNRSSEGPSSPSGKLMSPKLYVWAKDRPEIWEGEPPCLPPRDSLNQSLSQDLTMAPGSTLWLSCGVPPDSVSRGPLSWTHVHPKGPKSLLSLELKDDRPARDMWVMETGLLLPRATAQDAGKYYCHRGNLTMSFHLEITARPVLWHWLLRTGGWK and give its measured FMC63 Binding Score.
6. ± .2

meta.source: patent US20220387487A1
